test: chemical genetic growth profiling, strain panel (AID 1159580);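 further: tested at 20 µM; growth read once vehicle control cultures reached saturation at 30 °C; 1 = growth at the plate median or of vehicle wells; lower values mean less growth of the strain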; settings: S. cerevisiae deletion strains, growth OD, locus YMR231W, strain pep5, active compounds read low
In all, about 5,500 compounds went through this assay and about 2,000 (36%) were called active. Not shown: some 18% with an inconclusive outcome. This is one part of the list.
OUTCOME_MEASURE: normalized growth

> print(dat)
                                   compound  observed.measurement
1  NC(=O)C(c1ccccc1)(c1ccccc1)C1CCN(CCc2ccc3c(c2)CCO3)C1 (stereo unspecified)                  1.02
2  CN1CCCN=C1COC(=O)C(O)(c1ccccc1)C1CCCCC1 (stereo unspecified)                  0.99
3          CCCCCCNC(=O)n1cc(F)c(=O)[nH]c1=O                 0.942
4      CN1CCC(=C2c3ccccc3CC(=O)c3sccc32)CC1                 0.974
5          CN1CCC(=C2c3ccccc3CCc3sccc32)CC1                 0.979
6  C=C(C)C1CNC(C(=O)O)C1CC(=O)O (stereo unspecified)                 0.989
